# Tested on: TO-3-N3-2 (biotin conjugate)
# experiment-notes: pull-down binding Z-score (relative to library population); higher = stronger binding
# test-parameters: RNA library: Library-2
Assign pull-down binding Z-score to each entry below.
Numbers only.

Check out these entries, answers already filled in.
{"columns": ["monomer-sequence", "metric", "observed"],
 "data": [
  ["CUCACGUGUGCCUGCCUGUGAG [hsa-mir-339]", "pull-down binding Z-score", -0.521],
  ["AAAGGACUGGUAUGAUUUUGUAGAAAACCCAGAUAUAUUACGCGUAUACGCCAACUUAGGUGAACGUGUACGCCAAGCUUU", "pull-down binding Z-score", -0.0434],
  ["AGGUCUCCUGGCAU [hsa-mir-4256]", "pull-down binding Z-score", -0.439],
  ["CCAAAUCCUUUUCUGAUUUGG [hsa-mir-4520-2]", "pull-down binding Z-score", -0.574],
  ["GAAGCCUUGAUCAGAAGCUAGGAAGGCUUC [hsa-mir-4762]", "pull-down binding Z-score", 0.433]
]}

State the recorded pull-down binding Z-score for every item in the following list.
1. AAGUAAUUGUUUCUAAUGUACU [hsa-mir-412]
2. UGUCUUGUGUCUGUAAGUAU [hsa-mir-1275]
3. UCGUCAGUGUUUGA [hsa-mir-8073]
4. GCCUUGUUGCAUAUGGAUCAAGC [hsa-mir-103a-1]

# output
1: 0.0532; 2: -0.189; 3: -0.295; 4: -0.376

State the recorded pull-down binding Z-score for every item in the following list.
1. UGUUAGUGUUCAAGUCUACA [hsa-mir-4802]
2. UCCUGUUUACCUUUUACAAUUAAUUGCCAGGA [SHAPE_invivo_SARS-CoV-2_Motif_533]

# output
-0.398
-0.351

Just for reference, the supplement of paper PMC11865577 is where these values come from.
